FYI, the data here is from patent US20110178050A1.

Tested on: mice
Experiment: Systemic toxicity of trans and cis isomers of cyclolignans in mice
Details: Day 5; 28 mg/kg/d intraperitoneally daily; nude mice
Experimental: The experiment was carried out to determine the significance of the stereochemistry of cyclolignans for their general toxicity by investigating systemic toxic effects of trans and cis isomers of cyclolignans in mice. Five-week old pathogen-free nude mice (nu/nu) were used and housed within plastic isolators in a sterile facility. […]
Recorded No. of surviving mice/No. of treated mice by entry
observation-type: No. of surviving mice/No. of treated mice

molecule	value-observed
COc1cc([C@@H]2c3cc4c(cc3C[C@H]3COC(=O)[C@H]32)OCO4)cc(OC)c1OC	6/6
COc1cc([C@@H]2c3cc4c(cc3[C@H](O)[C@H]3COC(=O)[C@H]23)OCO4)cc(OC)c1OC [Podophyllotoxin, reference compound]	0/6
COc1cc([C@@H]2c3cc4c(cc3[C@H](O)[C@H]3COC(=O)[C@@H]23)OCO4)cc(OC)c1OC	6/6
COc1cc([C@@H]2c3cc4c(cc3C[C@H]3COC(=O)[C@@H]32)OCO4)cc(OC)c1OC [Deoxypodophyllotoxin, reference compound]	0/6
